Values compiled from patent US20110003994A1.

Listing: inhibition at 0.1 µM of selected compounds
measured-target: human D2 receptor (Homo sapiens, UniProt P14416)
Construct: expressed in transfected cells
Sequence (P14416 whole entry): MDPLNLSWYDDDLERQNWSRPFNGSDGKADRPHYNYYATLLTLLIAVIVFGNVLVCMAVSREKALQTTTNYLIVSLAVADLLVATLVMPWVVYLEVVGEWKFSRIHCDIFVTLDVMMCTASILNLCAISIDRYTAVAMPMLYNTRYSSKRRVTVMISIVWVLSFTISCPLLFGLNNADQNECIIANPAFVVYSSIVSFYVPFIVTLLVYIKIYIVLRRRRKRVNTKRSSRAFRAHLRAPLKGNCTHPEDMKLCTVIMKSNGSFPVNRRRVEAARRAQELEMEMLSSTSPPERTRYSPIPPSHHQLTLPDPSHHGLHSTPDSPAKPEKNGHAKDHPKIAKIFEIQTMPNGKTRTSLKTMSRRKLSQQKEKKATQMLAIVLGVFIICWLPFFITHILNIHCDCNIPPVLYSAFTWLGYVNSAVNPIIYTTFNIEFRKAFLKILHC
test-summary: Binding assay for D2 receptor using [3H] spiperone
condition-notes: test compound 100 nM, cell membrane expressing human D2 receptor, read-out: Binding inhibitory rate (%) for D2 receptor (100 nM)
Quick note: give the figure in %, leave out the unit.

Guide cases for inhibition at 0.1 µM, answers given:
compound	inhibition at 0.1 µM, %
COc1ccc(OC)c(S(=O)(=O)NC[C@@H]2CCCC[C@H]2CN2CCC(c3n[nH]c4cc(F)ccc34)CC2)c1 [Example 241]	95
O=C(/C=C/c1ccccc1F)NC[C@H]1CCCC[C@@H]1CN1CCN(c2nsc3ccccc23)CC1 [Example 44]	91
O=C(Cc1ccc(Cl)cc1)NC[C@H]1CCCC[C@@H]1CN1CCN(c2nsc3ccccc23)CC1 [Example 37]	90
COc1ccccc1/C=C/C(=O)NC[C@H]1C[C@@H]1CN1CCN(c2nsc3ccccc23)CC1 [Example 139]	91
COc1ccc(OC)c(S(=O)(=O)NC[C@H]2CCC[C@@H]2CN2CCN(c3nsc4ccccc34)CC2)c1 [Example 101]	94

Input line: Record request: inhibition at 0.1 µM value, item O=C(/C=C/c1ccc2c(c1)OCO2)NC[C@H]1CCCC[C@H]1CN1CCN(c2nsc3ccccc23)CC1 [Example 69]
Output line: 91

Input line: What value of inhibition at 0.1 µM has been reported for the following compound? COc1cccc(/C=C/C(=O)NC[C@H]2CCCC[C@H]2CN2CCN(c3nsc4ccccc34)CC2)c1OC [Example 62]
Output line: 91

----------
measured-target: human D2 receptor (Homo sapiens, UniProt P14416)
Construct: expressed in transfected cells
test-summary: Binding assay for D2 receptor using [3H] spiperone
condition-notes: test compound 100 nM, cell membrane expressing human D2 receptor, read-out: Binding inhibitory rate (%) for D2 receptor (100 nM)
quantity-kind: inhibition at 0.1 µM (%)
Report as a plain number; the unit % is understood.

Solved cases below.
compound	display-unit	inhibition at 0.1 µM
O=C(Cc1ccc(Cl)cc1)NC[C@@H]1CCCC[C@H]1CN1CCC(c2n[nH]c3cc(F)ccc23)CC1 [Example 243]	%	94
Cc1cccc(/C=C/C(=O)NC[C@@H]2CCCC[C@@H]2CN2CCN(c3nsc4ccccc34)CC2)c1 [Example 13]	%	92
O=C(/C=C/c1ccccc1[N+](=O)[O-])NC[C@@H]1CCCC[C@@H]1CN1CCN(c2nsc3ccccc23)CC1 [Example 16]	%	94

Input line: Short answer please: inhibition at 0.1 µM, human D2 receptor (Homo sapiens, UniProt P14416), entry O=C1C2C3CCC(C3)C2C(=O)N1C[C@@H]1CCCC[C@H]1CN1CCN(c2nsc3cc(F)ccc23)CC1 (stereo partly shown) [Example 85]
Output line: 91

Input line: Could you share what inhibition at 0.1 µM was measured for O=C(NC[C@H]1CCCC[C@@H]1CN1CCN(c2nsc3ccccc23)CC1)c1ccc2c(c1)OCO2 [Example 36] , tested on human D2 receptor (Homo sapiens, UniProt P14416)?
Output line: 92

Input line: Form: Entry = O=C(/C=C/c1ccc2c(c1)OCO2)NC[C@@H]1CCCC[C@@H]1CN1CCN(c2nsc3ccccc23)CC1 [Example 21] | System = human D2 receptor (Homo sapiens, UniProt P14416) | inhibition at 0.1 µM = ____
Output line: 91

Input line: Lab request: please report inhibition at 0.1 µM under test system human D2 receptor (Homo sapiens, UniProt P14416) for O=C(NC[C@@H]1CCCC[C@H]1CN1CCC(c2n[nH]c3cc(F)ccc23)CC1)c1ccc2c(c1)OCO2 [Example 242]
Output line: 95

----------
test-summary: Cataleptic action (pole test)
condition-notes: in vivo, ip; male rat, intraperitoneal, one hour after administration; dose inducing catalepsy in 50% of the rats
quantity-kind: ED50 at 1 h

compound	quantity-kind	result
O=C(/C=C/c1cccc(Cl)c1)NC[C@@H]1CCCC[C@H]1CN1CCC(c2noc3cc(F)ccc23)CC1 [Example 200]	ED50 at 1 h	> 7.2 mg/kg

Pending compound:
Input line: Tell me the measured ED50 at 1 h of O=C(NC[C@H]1CCC[C@@H]1CN1CCN(c2nsc3ccccc23)CC1)c1cccc(Oc2ccccc2)c1 [Example 87] , please.
Output line: > 135 mg/kg

----------
measured-target: human D2 receptor (Homo sapiens, UniProt P14416)
Construct: expressed in transfected cells
test-summary: Binding assay for D2 receptor using [3H] spiperone
condition-notes: test compound 100 nM, cell membrane expressing human D2 receptor, read-out: Binding inhibitory rate (%) for D2 receptor (100 nM)
quantity-kind: inhibition at 0.1 µM (%)
// return numeric value only (unit: %, not printed)

The cases that follow already have their inhibition at 0.1 µM on record.
compound	quantitative-readout
O=C1C2C3CCC(C3)C2C(=O)N1C[C@@H]1CCCC[C@H]1CN1CCC(c2noc3ccccc23)CC1 (stereo partly drawn)	94
COc1cccc(/C=C/C(=O)NC[C@@H]2CCCC[C@@H]2CN2CCN(c3nsc4ccccc34)CC2)c1OC	92

Input line: What measured inhibition at 0.1 µM goes with O=S(=O)(NC[C@@H]1CCCC[C@H]1CN1CCC(c2n[nH]c3cc(F)ccc23)CC1)c1cccc(-c2ccccc2)c1 ?
Output line: 85

----------
measured-target: human D2 receptor (Homo sapiens, UniProt P14416)
Construct: expressed in transfected cells
test-summary: Binding assay for D2 receptor using [3H] spiperone
condition-notes: test compound 100 nM, cell membrane expressing human D2 receptor, read-out: Binding inhibitory rate (%) for D2 receptor (100 nM)
quantity-kind: inhibition at 0.1 µM (%)
Kindly answer with a numeric value in %, unit omitted.

For orientation, consider the following solved cases.
compound	quantitative-readout
O=C(/C=C/c1ccc2c(c1)OCO2)NC[C@@H]1CCCC[C@H]1CN1CCC(c2noc3cc(F)ccc23)CC1	93
Cc1cccc(/C=C/C(=O)NC[C@H]2C[C@@H]2CN2CCN(c3nsc4ccccc34)CC2)c1	95
O=C(/C=C/c1ccccc1[N+](=O)[O-])NC[C@H]1CCCC[C@H]1CN1CCN(c2nsc3ccccc23)CC1	92
COc1ccccc1/C=C/C(=O)NC[C@H]1CCCC[C@@H]1CN1CCN(c2nsc3ccccc23)CC1	91
O=C(/C=C/c1ccccc1[N+](=O)[O-])NC[C@@H]1CCCC[C@H]1CN1CCC(c2n[nH]c3cc(F)ccc23)CC1	95

Consider now this further compound.
Input line: Which value of inhibition at 0.1 µM has been reported for O=C(NC[C@@H]1CCCC[C@H]1CN1CCN(c2nsc3cc(F)ccc23)CC1)c1ccc2c(c1)OCO2 in the records?
Output line: 94

----------
Some molecules, each annotated with its measured inhibition at 0.1 µM.
measured-target: human D2 receptor (Homo sapiens, UniProt P14416)
Construct: expressed in transfected cells
test-summary: Binding assay for D2 receptor using [3H] spiperone
condition-notes: test compound 100 nM, cell membrane expressing human D2 receptor, read-out: Binding inhibitory rate (%) for D2 receptor (100 nM)
State just the number; it will be interpreted in %.

Answered examples (5):
molecule	quantitative-readout
C=C1[C@H](CNS(=O)(=O)c2cccc(-c3ccccc3)c2)[C@H]1CN1CCC(c2noc3cc(F)ccc23)CC1	92
C=C1[C@H](CNC(=O)/C=C/c2ccccc2C)[C@H]1CN1CCC(c2noc3cc(F)ccc23)CC1	92
O=C(NC[C@H]1CCC[C@@H]1CN1CCN(c2nsc3ccccc23)CC1)c1ccc2c(c1)OCO2	95
O=C1C2C3CCC(C3)C2C(=O)N1C[C@@H]1CCCC[C@H]1CN1CCC(c2noc3ccc(F)cc23)CC1 (some centres unmarked)	94
COc1ccccc1/C=C/C(=O)NC[C@@H]1CCCC[C@@H]1CN1CCN(c2nsc3ccccc23)CC1	93

Input line: Reported inhibition at 0.1 µM for human D2 receptor (Homo sapiens, UniProt P14416), given O=C(NC[C@@H]1CCCC[C@H]1CN1CCC(c2noc3cc(F)ccc23)CC1)c1ccc2c(c1)OCO2 ?
Output line: 93

Input line: GET /values?readout=inhibition at 0.1 µM&system=human D2 receptor (Homo sapiens, UniProt P14416)&item= C=C1[C@H](CNC(=O)c2ccc3c(c2)OCO3)[C@H]1CN1CCC(c2noc3cc(F)ccc23)CC1
Output line: 90

Input line: Give the reported inhibition at 0.1 µM for O=C(/C=C/c1ccc2c(c1)OCO2)NC[C@@H]1CCCC[C@H]1CN1CCN(c2nsc3cc(F)ccc23)CC1 (system: human D2 receptor (Homo sapiens, UniProt P14416)).
Output line: 95
